Kindly state viability, T/C for each of the entries shown.
Test system: MCF7 complex spheroid growth, % test/control
TEST: Anticancer human tumor MCF7 cell line growth inhibition [Asc];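 also: spheroids exposed to compounds for 7 days; 100% = DMSO vehicle control wells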
COND: second compound 0.1 µM; first compound 0.3 µM; stronger effect = lower value
From the text: Multicellular complex tumor spheroid response to apoptosis pathway targeting inhibitors Alrizomadlin, Pelcitoclax, and Dasminapant in combination with a variety of drugs and investigational agents in selected tumor cell lines […] Compounds. […] If the clinical Cmax for an agent had not been determined, the highest concentration tested was 10 microM. […]
Note: unit % is implicit; provide only the numeric part.

// viability, T/C value for NC(=O)C(=Cn1cnc(-c2cc(C(F)(F)F)cc(C(F)(F)F)c2)n1)c1cncnc1 + Cc1c(S(C)(=O)=O)c(-c2cc(F)cc(N3CCN(c4ccc(NS(=O)(=O)c5ccc(NC(CCN6CCC(C(=O)OCCCP(=O)(O)O)CC6)CSc6ccccc6)c(S(=O)(=O)C(F)(F)F)c5)cc4)CC3)c2)c(-c2ccc(Cl)cc2)n1C(C)C : 15.7

// viability, T/C value for CCN1C(C(=O)NC23CCC(C(=O)O)(CC2)CC3)C(c2cccc(Cl)c2F)C2(C(=O)Nc3cc(Cl)ccc32)C12CCCCC2 (stereo unspecified) + Cc1c(S(C)(=O)=O)c(-c2cc(F)cc(N3CCN(c4ccc(NS(=O)(=O)c5ccc(NC(CCN6CCC(C(=O)OCCCP(=O)(O)O)CC6)CSc6ccccc6)c(S(=O)(=O)C(F)(F)F)c5)cc4)CC3)c2)c(-c2ccc(Cl)cc2)n1C(C)C : 34.5

// viability, T/C value for NC(=O)C(=Cn1cnc(-c2cc(C(F)(F)F)cc(C(F)(F)F)c2)n1)c1cncnc1 + CNC(C)C(=O)NC1CN(S(=O)(=O)c2cccc(S(=O)(=O)N3CCC4CCC(C(=O)NC(c5ccccc5)c5ccccc5)N4C(=O)C(NC(=O)C(C)NC)C3)c2)CCC2CCC(C(=O)NC(c3ccccc3)c3ccccc3)N2C1=O : 22.2

// viability, T/C value for CCN1C(C(=O)NC23CCC(C(=O)O)(CC2)CC3)C(c2cccc(Cl)c2F)C2(C(=O)Nc3cc(Cl)ccc32)C12CCCCC2 (stereo unspecified) + CNC(C)C(=O)NC1CN(S(=O)(=O)c2cccc(S(=O)(=O)N3CCC4CCC(C(=O)NC(c5ccccc5)c5ccccc5)N4C(=O)C(NC(=O)C(C)NC)C3)c2)CCC2CCC(C(=O)NC(c3ccccc3)c3ccccc3)N2C1=O : 6.23

// viability, T/C value for Cc1nc(N2CCC3(CC2)COC(C)C3N)c(CO)nc1Sc1ccnc(N)c1Cl (stereo unspecified) + Cc1c(S(C)(=O)=O)c(-c2cc(F)cc(N3CCN(c4ccc(NS(=O)(=O)c5ccc(NC(CCN6CCC(C(=O)OCCCP(=O)(O)O)CC6)CSc6ccccc6)c(S(=O)(=O)C(F)(F)F)c5)cc4)CC3)c2)c(-c2ccc(Cl)cc2)n1C(C)C : 80

// viability, T/C value for Cc1nc(N2CCC3(CC2)COC(C)C3N)c(CO)nc1Sc1ccnc(N)c1Cl (stereo unspecified) + CNC(C)C(=O)NC1CN(S(=O)(=O)c2cccc(S(=O)(=O)N3CCC4CCC(C(=O)NC(c5ccccc5)c5ccccc5)N4C(=O)C(NC(=O)C(C)NC)C3)c2)CCC2CCC(C(=O)NC(c3ccccc3)c3ccccc3)N2C1=O : 10.4

###

Kindly state viability, T/C for each of the entries shown.
Tested on: MCF7 complex spheroid growth, % test/control
TEST: Anticancer human tumor MCF7 cell line growth inhibition [Asc];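 also: spheroids exposed to compounds for 7 days; 100% = DMSO vehicle control wells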
COND: second compound 0.316 µM; first compound 0.316 µM; stronger effect = lower value

Item: CCN1CCN(Cc2ccc(Nc3ncc(F)c(-c4cc(F)c5nc(C)n(C(C)C)c5c4)n3)nc2)CC1 + Cc1c(S(C)(=O)=O)c(-c2cc(F)cc(N3CCN(c4ccc(NS(=O)(=O)c5ccc(NC(CCN6CCC(C(=O)OCCCP(=O)(O)O)CC6)CSc6ccccc6)c(S(=O)(=O)C(F)(F)F)c5)cc4)CC3)c2)c(-c2ccc(Cl)cc2)n1C(C)C | System: MCF7 complex spheroid growth, % test/control | viability, T/C: 94.6%

Item: C=CC(=O)N1CCN(c2nc(=O)n(-c3c(C)ccnc3C(C)C)c3nc(-c4c(O)cccc4F)c(F)cc23)C(C)C1 (stereo not drawn) + Cc1c(S(C)(=O)=O)c(-c2cc(F)cc(N3CCN(c4ccc(NS(=O)(=O)c5ccc(NC(CCN6CCC(C(=O)OCCCP(=O)(O)O)CC6)CSc6ccccc6)c(S(=O)(=O)C(F)(F)F)c5)cc4)CC3)c2)c(-c2ccc(Cl)cc2)n1C(C)C | System: MCF7 complex spheroid growth, % test/control | viability, T/C: 109%

Item: CCN1CCN(Cc2ccc(Nc3ncc(F)c(-c4cc(F)c5nc(C)n(C(C)C)c5c4)n3)nc2)CC1 + CNC(C)C(=O)NC1CN(S(=O)(=O)c2cccc(S(=O)(=O)N3CCC4CCC(C(=O)NC(c5ccccc5)c5ccccc5)N4C(=O)C(NC(=O)C(C)NC)C3)c2)CCC2CCC(C(=O)NC(c3ccccc3)c3ccccc3)N2C1=O | System: MCF7 complex spheroid growth, % test/control | viability, T/C: 8.8%

Item: COc1c(OCCCN2CCOCC2)ccc2c3n(c(=NC(=O)c4cnc(N)nc4)nc12)CCN3 + CNC(C)C(=O)NC1CN(S(=O)(=O)c2cccc(S(=O)(=O)N3CCC4CCC(C(=O)NC(c5ccccc5)c5ccccc5)N4C(=O)C(NC(=O)C(C)NC)C3)c2)CCC2CCC(C(=O)NC(c3ccccc3)c3ccccc3)N2C1=O | System: MCF7 complex spheroid growth, % test/control | viability, T/C: 8.17%

Item: C=C(F)C(=O)N1CCN(c2nc(OCC3CCCN3C)nc3c2CCN(c2cccc4cccc(Cl)c24)C3)CC1CC#N (stereo not drawn) + CNC(C)C(=O)NC1CN(S(=O)(=O)c2cccc(S(=O)(=O)N3CCC4CCC(C(=O)NC(c5ccccc5)c5ccccc5)N4C(=O)C(NC(=O)C(C)NC)C3)c2)CCC2CCC(C(=O)NC(c3ccccc3)c3ccccc3)N2C1=O | System: MCF7 complex spheroid growth, % test/control | viability, T/C: 11.9%

Item: O=C(c1ccc(F)c(F)c1Nc1ccc(I)cc1F)N1CC(O)([C@@H]2CCCCN2)C1 + CNC(C)C(=O)NC1CN(S(=O)(=O)c2cccc(S(=O)(=O)N3CCC4CCC(C(=O)NC(c5ccccc5)c5ccccc5)N4C(=O)C(NC(=O)C(C)NC)C3)c2)CCC2CCC(C(=O)NC(c3ccccc3)c3ccccc3)N2C1=O | System: MCF7 complex spheroid growth, % test/control | viability, T/C: 11.6%

Item: O=C(c1cc(Cc2n[nH]c(=O)c3ccccc23)ccc1F)N1CCN(C(=O)C2CC2)CC1 + CNC(C)C(=O)NC1CN(S(=O)(=O)c2cccc(S(=O)(=O)N3CCC4CCC(C(=O)NC(c5ccccc5)c5ccccc5)N4C(=O)C(NC(=O)C(C)NC)C3)c2)CCC2CCC(C(=O)NC(c3ccccc3)c3ccccc3)N2C1=O | System: MCF7 complex spheroid growth, % test/control | viability, T/C: 11.8%

Item: O=C(c1cc(Cc2n[nH]c(=O)c3ccccc23)ccc1F)N1CCN(C(=O)C2CC2)CC1 + Cc1c(S(C)(=O)=O)c(-c2cc(F)cc(N3CCN(c4ccc(NS(=O)(=O)c5ccc(NC(CCN6CCC(C(=O)OCCCP(=O)(O)O)CC6)CSc6ccccc6)c(S(=O)(=O)C(F)(F)F)c5)cc4)CC3)c2)c(-c2ccc(Cl)cc2)n1C(C)C | System: MCF7 complex spheroid growth, % test/control | viability, T/C: 101%

Item: COc1c(OCCCN2CCOCC2)ccc2c3n(c(=NC(=O)c4cnc(N)nc4)nc12)CCN3 + Cc1c(S(C)(=O)=O)c(-c2cc(F)cc(N3CCN(c4ccc(NS(=O)(=O)c5ccc(NC(CCN6CCC(C(=O)OCCCP(=O)(O)O)CC6)CSc6ccccc6)c(S(=O)(=O)C(F)(F)F)c5)cc4)CC3)c2)c(-c2ccc(Cl)cc2)n1C(C)C | System: MCF7 complex spheroid growth, % test/control | viability, T/C: 10.3%

Item: O=C(c1ccc(F)c(F)c1Nc1ccc(I)cc1F)N1CC(O)([C@@H]2CCCCN2)C1 + Cc1c(S(C)(=O)=O)c(-c2cc(F)cc(N3CCN(c4ccc(NS(=O)(=O)c5ccc(NC(CCN6CCC(C(=O)OCCCP(=O)(O)O)CC6)CSc6ccccc6)c(S(=O)(=O)C(F)(F)F)c5)cc4)CC3)c2)c(-c2ccc(Cl)cc2)n1C(C)C | System: MCF7 complex spheroid growth, % test/control | viability, T/C: 96.4%

Item: C#Cc1c(F)ccc2cc(O)cc(-c3ncc4c(N5CC6CCC(C5)N6)nc(OCC56CCCN5CC(F)C6)nc4c3F)c12 (stereo not drawn) + CNC(C)C(=O)NC1CN(S(=O)(=O)c2cccc(S(=O)(=O)N3CCC4CCC(C(=O)NC(c5ccccc5)c5ccccc5)N4C(=O)C(NC(=O)C(C)NC)C3)c2)CCC2CCC(C(=O)NC(c3ccccc3)c3ccccc3)N2C1=O | System: MCF7 complex spheroid growth, % test/control | viability, T/C: 12.2%

Item: C=CC(=O)N1CCN(c2nc(=O)n(-c3c(C)ccnc3C(C)C)c3nc(-c4c(O)cccc4F)c(F)cc23)C(C)C1 (stereo not drawn) + CNC(C)C(=O)NC1CN(S(=O)(=O)c2cccc(S(=O)(=O)N3CCC4CCC(C(=O)NC(c5ccccc5)c5ccccc5)N4C(=O)C(NC(=O)C(C)NC)C3)c2)CCC2CCC(C(=O)NC(c3ccccc3)c3ccccc3)N2C1=O | System: MCF7 complex spheroid growth, % test/control | viability, T/C: 15.2%

Item: C=C(F)C(=O)N1CCN(c2nc(OCC3CCCN3C)nc3c2CCN(c2cccc4cccc(Cl)c24)C3)CC1CC#N (stereo not drawn) + Cc1c(S(C)(=O)=O)c(-c2cc(F)cc(N3CCN(c4ccc(NS(=O)(=O)c5ccc(NC(CCN6CCC(C(=O)OCCCP(=O)(O)O)CC6)CSc6ccccc6)c(S(=O)(=O)C(F)(F)F)c5)cc4)CC3)c2)c(-c2ccc(Cl)cc2)n1C(C)C | System: MCF7 complex spheroid growth, % test/control | viability, T/C: 86.8%
